Protocol Text: amyloid nucleation score (Sup35N fusion, yeast selection) (log enrichment); library NNK2; higher = more nucleation; inactive = no reads after selection;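 also: zero at mode of non-aggregating sequences after 7 days selection at 30°C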
Everything with amyloid nucleation score lower than -0.2 is no (0); everything else, including exactly -0.2, is yes (1).

A selection of reference data follows.
YRINEDET :: no (0)
VIDVKFVGYILQVYVGVSFG :: yes (1)
FGRGSRLLLCAGFPLLNSYA :: no (0)
IRNDKYW :: yes (1)

Does the reported amyloid nucleation score for "VMLSLMDKLEYMPV" fall at or above the -0.2 mark?
yes (1)

Is amyloid nucleation score at least -0.2? Consider "TSSQTHSR"
yes (1)

Test whether the substance "FSIYYRGPRQVSTYRDLIPV" records amyloid nucleation score of -0.2 or higher.
no (0)

Please tell me: is the substance "CPSWFLSGDKCFYRGESSEN" at or over -0.2 in terms of amyloid nucleation score?
yes (1)

Is reported amyloid nucleation score greater than or equal to -0.2 here: "PYQAIHYVNRCGFWLTASCA"
yes (1)

Determine whether measured amyloid nucleation score meets or exceeds -0.2 for "GRRYSRTVEFVTF"
yes (1)

State whether the measured amyloid nucleation score reaches -0.2, counting equality as reaching it, for "YSAFHSMENQTRKMFMEPLP"
no (0)

Could you verify whether the entry "LYDVAQDEPLVSRMGLFDPR" shows amyloid nucleation score of no less than -0.2?
yes (1)

Textbook exercise: given the entry "RVMFYVINEVWDMNSARTNT" , state whether its amyloid nucleation score is greater than or equal to -0.2.
yes (1)

Reported amyloid nucleation score reaches at least -0.2 for "TYRIGYMNQCTSR" ?
no (0)
